- Test system: Escherichia coli TOP10
- testProtocol: shrunken log2 fold change of peptide-encoding DNA abundance (4.5 h post-induction vs induction); higher = less antimicrobial activity (less host growth inhibition)
- statedConditions: time post-induction: 4.5 h; library: site-saturation at positions 5, 18, 19, 20
experimentalReadout: shrunken log2 fold change
Give the figure only, with no unit attached.

stdin: # lookup: Escherichia coli TOP10 shrunken log2 fold change, key = "RRIRWRPPRLPRPRPRPQFKPRP"
stdout: -0.0678

stdin: Recall the reported shrunken log2 fold change of "RRIRPRPPRLPRPRPRPCFVPRP" when tested on Escherichia coli TOP10.
stdout: -0.18

* * *

Here the recorded shrunken log2 fold change is given for each entry.
- Tested on: Escherichia coli TOP10
- testProtocol: shrunken log2 fold change of peptide-encoding DNA abundance (4.5 h post-induction vs induction); higher = less antimicrobial activity (less host growth inhibition)
- statedConditions: time post-induction: 4.5 h; library: site-saturation at positions 5, 18, 19, 20
Answer as a number with no unit attached.

sequenceInput	measuredTarget	experimentalReadout	valueObserved
RRIRNRPPRLPRPRPRPIKHPRP	Escherichia coli TOP10	shrunken log2 fold change	-0.724
RRIRGRPPRLPRPRPRPWTCPRP	Escherichia coli TOP10	shrunken log2 fold change	-0.0593
RRIRGRPPRLPRPRPRPRVSPRP	Escherichia coli TOP10	shrunken log2 fold change	0.45
RRIRQRPPRLPRPRPRPLKTPRP	Escherichia coli TOP10	shrunken log2 fold change	0.0342
RRIRKRPPRLPRPRPRPDISPRP	Escherichia coli TOP10	shrunken log2 fold change	-0.0841
RRIRERPPRLPRPRPRPCCWPRP	Escherichia coli TOP10	shrunken log2 fold change	0.185
RRIRPRPPRLPRPRPRPHFPPRP	Escherichia coli TOP10	shrunken log2 fold change	-0.204

Moving on to the next sequence.
stdin: Tell me measured shrunken log2 fold change for "RRIRYRPPRLPRPRPRPPMCPRP" please.
stdout: -0.0507

* * *

- Test system: Escherichia coli TOP10
- testProtocol: shrunken log2 fold change of peptide-encoding DNA abundance (4.5 h post-induction vs induction); higher = less antimicrobial activity (less host growth inhibition)
- statedConditions: time post-induction: 4.5 h; library: site-saturation at positions 5, 18, 19, 20
experimentalReadout: shrunken log2 fold change
Keep it simple and answer with nothing but the number.

sequenceInput	valueObserved
RRIRNRPPRLPRPRPRPMMWPRP	-0.0283
RRIRRRPPRLPRPRPRPVQSPRP	0.0557
RRIRGRPPRLPRPRPRPGTQPRP	0.143

stdin: Report shrunken log2 fold change under test system Escherichia coli TOP10 for "RRIRPRPPRLPRPRPRPCQFPRP" .
stdout: -0.246

stdin: State shrunken log2 fold change on Escherichia coli TOP10. Entry: "RRIRWRPPRLPRPRPRPPRGPRP"
stdout: 0.584

stdin: Return reported shrunken log2 fold change for target or system Escherichia coli TOP10, item "RRIRVRPPRLPRPRPRPPCKPRP" .
stdout: 0.106

stdin: Give shrunken log2 fold change for "RRIRDRPPRLPRPRPRPPVHPRP" tested on Escherichia coli TOP10.
stdout: 0.105

stdin: Look up and report shrunken log2 fold change, with Escherichia coli TOP10 as system, for "RRIRYRPPRLPRPRPRPWNGPRP"
stdout: -0.155

stdin: Recall the reported shrunken log2 fold change of "RRIRVRPPRLPRPRPRPEICPRP" on Escherichia coli TOP10 and write it down.
stdout: 0.2

stdin: # return shrunken log2 fold change for "RRIRIRPPRLPRPRPRPETHPRP" , test system: Escherichia coli TOP10
stdout: -0.413

stdin: # return shrunken log2 fold change of "RRIRGRPPRLPRPRPRPWSDPRP" (system: Escherichia coli TOP10);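 further: peptides expressed intracellularly from a pBAD plasmid library in pooled LB shake-flask culture, induced with 0.3% L-arabinose, DNA abundance read by NGS, three biological replicates, DESeq2 with apeglm shrinkage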
stdout: 0.0554
